- EXPERIMENTAL TARGET: T1, Mip1Δ175 (Saccharomyces cerevisiae, UniProt P15801 30-1079, del1080-1254)
- T1 sequence: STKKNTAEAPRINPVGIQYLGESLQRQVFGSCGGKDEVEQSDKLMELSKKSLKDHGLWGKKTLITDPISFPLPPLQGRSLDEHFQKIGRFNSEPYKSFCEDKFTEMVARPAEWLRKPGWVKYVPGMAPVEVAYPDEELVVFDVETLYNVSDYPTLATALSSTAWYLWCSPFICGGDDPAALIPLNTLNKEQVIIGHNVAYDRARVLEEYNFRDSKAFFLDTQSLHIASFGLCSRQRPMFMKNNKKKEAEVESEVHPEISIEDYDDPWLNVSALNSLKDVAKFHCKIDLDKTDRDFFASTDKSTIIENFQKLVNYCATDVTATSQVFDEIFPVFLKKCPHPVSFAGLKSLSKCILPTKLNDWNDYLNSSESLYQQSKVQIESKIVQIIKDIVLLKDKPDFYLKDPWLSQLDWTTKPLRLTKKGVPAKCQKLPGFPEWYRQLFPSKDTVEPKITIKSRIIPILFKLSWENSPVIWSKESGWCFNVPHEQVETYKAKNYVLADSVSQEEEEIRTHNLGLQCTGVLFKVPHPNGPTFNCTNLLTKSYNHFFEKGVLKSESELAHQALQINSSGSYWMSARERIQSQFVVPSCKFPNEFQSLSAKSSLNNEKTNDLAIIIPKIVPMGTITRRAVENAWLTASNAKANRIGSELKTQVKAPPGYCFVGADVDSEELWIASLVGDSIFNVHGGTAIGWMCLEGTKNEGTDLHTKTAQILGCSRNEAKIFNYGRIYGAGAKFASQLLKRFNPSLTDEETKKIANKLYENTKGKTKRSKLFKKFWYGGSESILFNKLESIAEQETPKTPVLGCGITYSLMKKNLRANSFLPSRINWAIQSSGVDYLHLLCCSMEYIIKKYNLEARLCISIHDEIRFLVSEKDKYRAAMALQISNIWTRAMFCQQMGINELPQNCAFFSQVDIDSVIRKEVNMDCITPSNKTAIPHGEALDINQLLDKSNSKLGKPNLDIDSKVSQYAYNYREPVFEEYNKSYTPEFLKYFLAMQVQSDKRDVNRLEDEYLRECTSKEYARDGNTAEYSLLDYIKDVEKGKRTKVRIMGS
- EXPERIMENT NOTES: EMSA; no Mg2+ or dNTP in binding mix; EMSA: 1 nM substrate, 0.2-12.5 nM polymerase, 20 mM Tris-HCl pH 8.0, 40 mM KCl, 10% glycerol, 0.1 mg/ml BSA, 2 mM DTT, 2 min at 0°C; native 8% Tris-glycine gel
- CONDITION INFO: protein: recombinant; tags: N-terminal 6xHis; label: 32P at 5' end of D25 primer; 25 bp duplex, 5' overhang 20 nt on D45 (recessed primer 3' end)
pKd: −log10 of the molar value.
MEASURED PROPERTY: pKd

| BINDER | MEASURED PROPERTY | ENDPOINT RESULT |
| --- | --- | --- |
| 45/25 primer-template (D45/D25) (dsDNA) DNA 1: GGACGGCATTGGATCGAGGTTGAGTTGGTTGGACGGCTGCGAGGC DNA 2: GCCTCGCAGCCGTCCAACCAACTCA | pKd | 8.66 |
